Target: PKC-γ (Homo sapiens, UniProt P05129)
Assay: Protein Kinase C Histone-Based Assay, isozyme γ
Conditions: read-out: PKC-γ % inhibition
Binary classification by inhibition at 10 µM, with 50% as an inclusive lower bound for label 1; all other cases are label 0.

> print(dat)
                            molecularstring  classassignment
1  CN(C)CCCn1cc(C2=C(c3cccc4ccccc34)C(=O)NC2=O)c2cccnc21          label 1

# input Say whether O=C1NC(=O)C(c2cn(CCCO)c3ncccc23)=C1c1csc2ccc(Cl)cc12 shows inhibition at 10 µM of 50% or more.
# output label 1

* * *

Target: UniProt:P05129
Test: Protein Kinase C Histone-Based Assay, isozyme γ
Details: read-out: PKC-γ % inhibition
Measured inhibition at 10 µM values are reported for all entries that follow.

Consider the following illustrative entries.
> print(dat)
                            molecularstring  value
1  O=C1NC(=O)C(c2cn(CCCO)c3ncccc23)=C1c1cccc2ccccc12    31%
2  COC(=O)NCCCn1cc(C2=C(c3ccccc3OC)C(=O)NC2=O)c2cccnc21    35%
3  COc1ccccc1C1=C(c2cn(CCCNC=O)c3ncccc23)C(=O)NC1=O    48%
4  CN(C)CCCn1cc(C2=C(c3ccccc3Cl)C(=O)NC2=O)c2cccnc21    54%

# input Tell me reported inhibition at 10 µM for O=C1NC(=O)C(c2cn(CCCO)c3ncccc23)=C1c1ccccc1Cl , tested with UniProt:P05129.
# output 43%
